B1: library; numbered along this chain (parent)
chain: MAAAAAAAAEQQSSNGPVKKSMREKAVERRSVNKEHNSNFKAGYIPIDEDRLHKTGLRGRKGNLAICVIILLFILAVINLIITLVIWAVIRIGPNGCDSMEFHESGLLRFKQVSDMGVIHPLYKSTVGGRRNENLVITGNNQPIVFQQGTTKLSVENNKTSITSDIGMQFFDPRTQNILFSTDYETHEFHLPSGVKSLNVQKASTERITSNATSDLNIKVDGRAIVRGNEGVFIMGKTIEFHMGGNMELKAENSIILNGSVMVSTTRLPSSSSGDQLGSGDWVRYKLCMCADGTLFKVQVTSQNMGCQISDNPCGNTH

variants of: B1; test: SGCB cell-surface expression functional score (HA stain, bin4 vs bin1, normalised to synonymous) (log10 ratio); higher = more cell-surface SGCB (functional)
quantity.kind: SGCB cell-surface expression functional score (log10)
// no unit, no text: just the number

Field: example entries. Status: answers known.
G43V : 0.07
P143H : -0.41
L72P : -0.11
T160P : -1.28
E35D : 0.11

query: Determine its reported SGCB cell-surface expression functional score (log10): K219C
result: 0.59

query: Determine its reported SGCB cell-surface expression functional score (log10): S264P
result: 0.06

query: Determine its reported SGCB cell-surface expression functional score (log10): C97S
result: -0.18

query: Determine its reported SGCB cell-surface expression functional score (log10): L75C
result: -0.06
